Known IC50 of a selection of sequences
molecular target: HLA-B*07:02; assay: IEDB peptide-MHC binding, purified MHC/competitive/radioactivity; bounds were set here for any values at or beyond the usual limits of such assays; conditions: source organism: hepatitis C virus genotype 1a
Please give a number only; it is taken to be in nM.

Some sequences with known IC50 results, for comparison:
1. HPALVFDIT | 160
2. RPALVFDIT | 43

# input for lookup
[Q] Return IC50 measured with HLA-B*07:02 given this sequence: IPFYGKAI
[A] 497

###

target: HLA-A*02:01; assay: IEDB peptide-MHC binding, purified MHC/competitive/radioactivity; bounds were set here for any values at or beyond the usual limits of such assays; conditions: source organism: hepatitis C virus genotype 1a
Below, each entry is listed with its recorded pIC50.
Please keep in mind that pIC50 is minus log10 of the molar concentration; only the number is needed.

1. SLLAPGAKQNV | 6.29

Pending sequence:
[Q] # input sequence: VLSDFKTWL ; wanted: its pIC50
[A] 6.52
